# TEST_TARGET: KRAS G13D (Homo sapiens, UniProt P01116+P62937, G13D)
# Sequence (P01116 1-169 isoform P01116-2 G13D limits assumed): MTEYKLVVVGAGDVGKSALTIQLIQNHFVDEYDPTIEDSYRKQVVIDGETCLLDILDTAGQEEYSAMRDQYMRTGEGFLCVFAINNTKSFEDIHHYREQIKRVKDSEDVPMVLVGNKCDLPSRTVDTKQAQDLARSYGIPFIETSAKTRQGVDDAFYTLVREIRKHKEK
# Sequence (P62937 whole entry): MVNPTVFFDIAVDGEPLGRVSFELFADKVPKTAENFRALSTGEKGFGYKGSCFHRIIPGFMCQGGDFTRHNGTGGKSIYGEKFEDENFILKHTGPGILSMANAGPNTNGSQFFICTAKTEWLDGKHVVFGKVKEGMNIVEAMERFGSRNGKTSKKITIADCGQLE
# PROTOCOL_DESCRIPTION: Disruption of BRAF RBD interaction with Ras (FRET / MOA assay, with Cyclophilin A)
# Type: biochemical
# ASSAY_CONDITIONS: KRAS G13D; read-out: KRAS G13D FRET data IC50
# Text: This protocol may also be executed substituting other Ras proteins or nucleotides. The purpose of this biochemical assay was to measure the ability of test compounds to facilitate ternary complex formation between a nucleotide-loaded K-Ras isoform and Cyclophilin A; the resulting ternary complex disrupts binding to a BRAF^RBD construct, inhibiting K-Ras signaling through a RAF effector. Data is reported as IC50 values. […]
// IC50 lookup, one value per entry

[[record]]
compound = "CCn1c(-c2cccnc2[C@H](C)OC)c2c3cc(ccc31)-c1cc(O)cc(c1)C[C@H](NS(=O)(=O)CCN(C)C)C(=O)N1CCC[C@H](N1)C(=O)OCC(C)(C)C2 (racemic) [Example A190]"
data_value = "> 10000 nM"


Now for the compound whose IC50 we want.
Report value only: IC50, KRAS G13D (Homo sapiens, UniProt P01116+P62937, G13D), CCn1c(-c2cccnc2[C@H](C)OC)c2c3cc(ccc31)-c1csc(n1)C[C@H](NC(=O)[C@H](C(C)C)N(C)C(=O)N1CCCOCC1)C(=O)N1CCC[C@H](N1)C(=O)OCC(C)(C)C2 (atropisomer, axis not shown) [Example A335]
100 to 1000 nM
